# TESTED_TARGET: Cytochrome P450 2C8 (Homo sapiens, UniProt P10632)
# Sequence (P10632 whole entry): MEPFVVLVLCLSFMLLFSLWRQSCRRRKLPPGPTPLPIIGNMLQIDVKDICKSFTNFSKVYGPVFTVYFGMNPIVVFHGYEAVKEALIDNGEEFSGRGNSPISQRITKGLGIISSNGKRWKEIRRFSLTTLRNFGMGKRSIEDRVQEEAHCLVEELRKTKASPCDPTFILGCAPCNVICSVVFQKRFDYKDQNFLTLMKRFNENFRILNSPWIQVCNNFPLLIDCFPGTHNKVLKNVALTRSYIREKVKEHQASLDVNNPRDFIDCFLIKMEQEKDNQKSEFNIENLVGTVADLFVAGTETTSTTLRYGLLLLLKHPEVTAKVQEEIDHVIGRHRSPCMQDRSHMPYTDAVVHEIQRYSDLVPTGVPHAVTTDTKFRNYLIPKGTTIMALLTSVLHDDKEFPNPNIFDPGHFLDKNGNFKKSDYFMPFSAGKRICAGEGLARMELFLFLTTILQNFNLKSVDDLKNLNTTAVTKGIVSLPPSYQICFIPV
RESULT_TYPE: IC50

Q) Dear colleague, I am looking for the recorded IC50 of the following molecule: `CCn1c(-c2cnc(C)nc2)nc2c(N[C@H]3CCN(C(=O)C4CC4)C3)ncnc21`
A) > 50 µM

Hey, just so you know, these numbers are from ChEMBL document CHEMBL4834420.
